Recorded FPN EC50, one value per entry.
target.of.assay: T1, human ferroportin (SLC40A1) fused in frame with GFP, stably expressed in HEK293 cells (human, UniProt Q9NP59 1-571)
T1 sequence (looked up): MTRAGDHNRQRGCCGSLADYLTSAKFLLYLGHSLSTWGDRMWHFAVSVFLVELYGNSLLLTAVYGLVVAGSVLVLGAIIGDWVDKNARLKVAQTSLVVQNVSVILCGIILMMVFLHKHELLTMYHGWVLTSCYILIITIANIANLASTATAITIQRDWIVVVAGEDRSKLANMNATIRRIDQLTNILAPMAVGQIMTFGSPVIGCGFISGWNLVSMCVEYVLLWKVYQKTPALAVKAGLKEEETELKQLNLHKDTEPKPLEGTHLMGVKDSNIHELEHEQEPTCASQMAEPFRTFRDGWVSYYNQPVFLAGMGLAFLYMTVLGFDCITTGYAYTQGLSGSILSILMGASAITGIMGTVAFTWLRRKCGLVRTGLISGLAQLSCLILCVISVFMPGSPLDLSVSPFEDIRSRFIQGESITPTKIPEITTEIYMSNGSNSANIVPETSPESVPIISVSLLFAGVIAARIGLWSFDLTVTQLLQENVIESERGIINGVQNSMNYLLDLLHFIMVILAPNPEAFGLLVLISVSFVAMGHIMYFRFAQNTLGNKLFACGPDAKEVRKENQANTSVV
protocol.text: cell-based or functional assay
Positions of bridges follow the written chain, without caps; N, C: chain ends. Non-standard residues stand in square brackets, D forms with d. Groups on a side chain read outwards from the residue. *: point of attachment. Dip = N[C@H](C(=O)O)C(c1ccccc1)c1ccccc1; His(τ-Me) = Cn1cnc(C[C@H](N)C(=O)O)c1; Palmitoyl = CCCCCCCCCCCCCCCC(=O)*; β3hF = N[C@H](CC(=O)O)Cc1ccccc1; Isovaleryl = CC(C)CC(=O)*; Ahx = NCCCCCC(=O)O

binder	unit.string	FPN EC50
Isovaleryl-[dE]TH[Dip]PIIK(Ac)[β3hF]-NH2 [Isovaleric Acid-[(D)Glu]-T-H-[Dpa]-P-I-I-[Lys(Ac)]-[bhPhe]-NH2]	nM	1450
Isovaleryl-ET[His(τ-Me)][Dip]PAIK([Ahx-Palmitoyl])-NH2 [Isovaleric Acid-E-T-[His_1Me]-[Dpa]-P-A-I-[Lys(Ahx_Palm)]-NH2]	nM	73
Isovaleryl-ATH[Dip]PEI[dK][β3hF]K([Ahx-Palmitoyl])R-NH2 (lactam 6-8; SMILES CCCCCCCCCCCCCCCC(=O)NCCCCCC(=O)NCCCC[C@H](NC(=O)C[C@H](Cc1ccccc1)NC(=O)[C@H]1CCCCNC(=O)CC[C@H](NC(=O)[C@@H]2CCCN2C(=O)[C@@H](NC(=O)[C@H](Cc2c[nH]cn2)NC(=O)[C@@H](NC(=O)[C@H](C)NC(=O)CC(C)C)[C@@H](C)O)C(c2ccccc2)c2ccccc2)C(=O)N[C@@H]([C@@H](C)CC)C(=O)N1)C(=O)N[C@@H](CCCNC(=N)N)C(N)=O) [Isovaleric Acid-A-T-H-[Dpa]-P-E-I-[(D)Lys]-[bhPhe]-[Lys(Ahx_Palm)]-R-NH2; (E and (D)Lys cyclized)]	nM	61.2
